Measured values drawn from paper PMC7476565 for this set.

# test_method_notes: In vitro cytotoxicity MTS assay on CRFK cells
# Type: cell-based, feline
# recorded_conditions: cat, 50% cytotoxic concentration CC50, MTS assay
metric_name: CC50

Some solved entries appear below for comparison.
# compound, CC50
data = [
    ("Cc1cccc(C)c1OCC(=O)N[C@@H](Cc1ccccc1)[C@@H](O)C[C@H](Cc1ccccc1)NC(=O)[C@H](C(C)C)N1CCCNC1=O [Lopinavir, reference compound]", "> 100 µM"),
    ("O=C(C=Cc1ccc2ccccc2n1)c1cc(Cl)ccc1O", "68.5 µM"),
    ("O=C(Nc1ccc(F)cc1)Oc1ccc[nH]c1=O", "511 µM"),
    ("NC(=O)c1ncn([C@@H]2O[C@H](CO)[C@@H](O)[C@H]2O)n1 [Ribavirin, reference compound]", "> 500 µM"),
]

Now for another entry.
Can you look up the measured CC50 of N#CC1(C#N)C2C=CC(c3coc4cccc2c34)C1(C#N)C#N (centres unmarked) for me?
28.1 µM
